target: β-amyloid1-42, P05067; assay: cell-based or functional assay
Task for the reader: assign each of the following binders its reported Inh ACh rel IC50.
Provide the reading as a plain figure in µM.

Q: Endpoint output: Inh ACh rel IC50 of Ac-IPGKRSERFYECCKEPYP-NH2 (cysteine pairing not given here) . Value?
Ans: 0.71

Q: // query: `Ac-SERFYECAKEP-NH2`
Ans: 0.165

Q: // query: Ac-SERFYECCKEP-NH2 (cysteine pairing not given here)
Ans: 0.125

Q: // query: Ac-GIPGKRSERFYECCK-NH2 (cysteine pairing not given here)
Ans: 1.21

Q: // query: Ac-SEAFYECCKEP-NH2 (cysteine pairing not given here)
Ans: 0.277
